The reader will find reported inhibition at 10 µM values listed item by item below.
Tgt: hERG (KCNH2) (Homo sapiens)
Sequence (Q12809 whole entry): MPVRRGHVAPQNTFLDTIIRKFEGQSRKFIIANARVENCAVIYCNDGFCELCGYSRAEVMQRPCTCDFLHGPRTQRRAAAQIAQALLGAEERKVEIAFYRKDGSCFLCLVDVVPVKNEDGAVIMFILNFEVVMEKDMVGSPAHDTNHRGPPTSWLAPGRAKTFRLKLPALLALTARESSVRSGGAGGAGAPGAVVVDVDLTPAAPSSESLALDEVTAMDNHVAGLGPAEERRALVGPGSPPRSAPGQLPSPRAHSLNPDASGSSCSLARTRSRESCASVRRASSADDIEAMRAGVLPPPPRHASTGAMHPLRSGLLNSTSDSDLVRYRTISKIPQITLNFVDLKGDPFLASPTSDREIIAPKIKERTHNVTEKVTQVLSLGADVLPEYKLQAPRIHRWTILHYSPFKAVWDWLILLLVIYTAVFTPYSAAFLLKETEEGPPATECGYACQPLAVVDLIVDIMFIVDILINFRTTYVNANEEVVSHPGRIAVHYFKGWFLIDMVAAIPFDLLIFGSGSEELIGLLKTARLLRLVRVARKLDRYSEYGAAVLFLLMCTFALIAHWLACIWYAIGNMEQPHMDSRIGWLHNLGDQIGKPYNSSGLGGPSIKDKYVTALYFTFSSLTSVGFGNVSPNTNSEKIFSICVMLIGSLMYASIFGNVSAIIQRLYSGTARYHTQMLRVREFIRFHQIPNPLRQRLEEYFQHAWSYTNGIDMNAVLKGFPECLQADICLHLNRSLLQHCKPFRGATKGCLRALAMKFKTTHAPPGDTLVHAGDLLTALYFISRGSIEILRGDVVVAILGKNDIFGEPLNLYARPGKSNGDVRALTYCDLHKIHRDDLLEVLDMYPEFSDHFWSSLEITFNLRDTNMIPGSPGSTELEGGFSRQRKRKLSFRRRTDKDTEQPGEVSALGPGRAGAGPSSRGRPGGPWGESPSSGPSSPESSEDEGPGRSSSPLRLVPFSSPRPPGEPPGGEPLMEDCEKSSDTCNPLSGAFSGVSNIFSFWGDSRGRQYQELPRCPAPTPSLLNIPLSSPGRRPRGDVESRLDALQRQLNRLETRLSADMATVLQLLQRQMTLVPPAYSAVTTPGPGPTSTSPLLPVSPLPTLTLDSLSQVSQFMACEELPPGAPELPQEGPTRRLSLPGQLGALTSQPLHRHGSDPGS
Assay protocol: Inhibition of human ERG at 10 uM by patch clamp assay

# Smiles representation, Output unit, inhibition at 10 µM
measured = [
    ("CN(C)Cc1ccc(C(=O)Cn2ccc(OCc3ccccc3)cc2=O)cc1", "%", 63),
    ("Cc1cc(CN(C)C)ccc1C(=O)Cn1ncc(OCc2ccccc2)cc1=O", "%", 88),
    ("CN(C)Cc1ccc(C(=O)Cn2ncc(OCc3ccc(Cl)cn3)cc2=O)cc1", "%", 39),
    ("Cc1cc(CN(C)C)ccc1C(=O)Cn1ccc(OCc2ccccc2)cc1=O", "%", 67),
    ("Cc1cc(CN(C)C)ccc1C(=O)Cn1ccc(OCc2ccc(Br)cn2)cc1=O", "%", 42),
    ("COc1ccc(COc2cnn(CC(=O)c3ccc(CN(C)C)cc3C)c(=O)c2)nc1", "%", 17),
    ("Cc1cc(CN(C)C)ccc1C(=O)Cn1ccc(OCc2ccc(Cl)cn2)cc1=O", "%", 41),
]
